The following compounds are listed with their measured pIC50 values.
Target: KRAS G12V (Homo sapiens, UniProt P01116+P62937, G12V)
Sequence (P01116 1-169 isoform P01116-2 G12V limits assumed): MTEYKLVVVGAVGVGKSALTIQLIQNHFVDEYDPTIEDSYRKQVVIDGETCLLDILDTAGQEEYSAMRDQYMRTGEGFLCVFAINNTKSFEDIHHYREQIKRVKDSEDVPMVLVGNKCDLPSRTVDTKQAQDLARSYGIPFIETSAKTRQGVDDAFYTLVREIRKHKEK
Sequence (P62937 whole entry): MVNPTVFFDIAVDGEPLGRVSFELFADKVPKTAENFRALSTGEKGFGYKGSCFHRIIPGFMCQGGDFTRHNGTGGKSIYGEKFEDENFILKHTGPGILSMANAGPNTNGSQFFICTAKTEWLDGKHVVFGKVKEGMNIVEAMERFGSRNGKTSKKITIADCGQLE
Assay: Ras-Raf disruption / FRET / MOA assay (BRAF RBD)
Type: biochemical
Settings: Ras-Raf disruption, with Cyclophilin A; read-out: KRAS G12V FRET data IC50
pIC50: −log10 of the molar value.

compound	pIC50
CCn1c(-c2cnccc2COC)c2c3cc(ccc31)-c1cccc(c1)C[C@H](NC(=O)[C@H](C(C)C)N(C)C(=O)CC1(N=C=Nc3ccc(OC)cc3)CC1)C(=O)N1CCC[C@H](N1)C(=O)OCC(C)(C)C2	< 5.00
CCn1c(-c2cnccc2COC)c2c3cc(ccc31)-c1cccc(c1)C[C@H](NC(=O)[C@H](C(C)C)N(C)C(=O)CCN=C=NCCCN1CCOCC1)C(=O)N1CCC[C@H](N1)C(=O)OCC(C)(C)C2	< 5.00
CCn1c(-c2cccnc2[C@H](C)OC)c2c3cc(ccc31)-c1cc(O)cc(c1)C[C@H](NC(=O)[C@H](C(C)C)N(C)C(=O)[C@H]1CCCCN(C(=O)[C@H]3CN3)C1)C(=O)N1CCC[C@H](N1)C(=O)OCC(C)(C)C2 (atropisomer, axis not shown)	6.00 to 7.00
CCn1c(-c2cccnc2[C@H](C)OC)c2c3cc(ccc31)-c1cc(O)cc(c1)C[C@H](NC(=O)[C@H](C(C)C)N(C)C(=O)[C@H]1CN1)C(=O)N1CCC[C@H](N1)C(=O)OCC(C)(C)C2	6.00 to 7.00
CCn1c(-c2cccnc2[C@H](C)OC)c2c3cc(ccc31)-c1cc(O)cc(c1)C[C@H](NC(=O)[C@H](C(C)C)N(C)C(=O)C1CN(S(=O)(=O)[C@@H]3CN3C)C1)C(=O)N1CCC[C@H](N1)C(=O)OCC(C)(C)C2 (single isomer, unassigned)	6.00 to 7.00
CCn1c(-c2cccnc2[C@H](C)OC)c2c3cc(ccc31)-c1cc(O)cc(c1)C[C@H](NC(=O)[C@H](C(C)C)N(C)C(=O)[C@H]1C[C@H]3CC[C@@H](C1)N3C(=O)[C@@H]1CN1)C(=O)N1CCC[C@H](N1)C(=O)OCC(C)(C)C2 (atropisomer, axis not shown)	6.00 to 7.00
CCn1c(-c2cccnc2[C@H](C)OC)c2c3cc(ccc31)-c1cc(O)cc(c1)C[C@H](NC(=O)[C@H](C(C)C)N(C)C(=O)N1CC[C@H](N(C)C(=O)[C@H]3CN3)C1)C(=O)N1CCC[C@H](N1)C(=O)OCC(C)(C)C2 (atropisomer, axis not shown)	6.00 to 7.00
CCn1c(-c2cccnc2[C@H](C)OC)c2c3cc(ccc31)-c1cc(O)cc(c1)C[C@H](NC(=O)[C@H](C(C)C)N(C)C(=O)N1CCN(C(=O)[C@H]3CN3)CC1=O)C(=O)N1CCC[C@H](N1)C(=O)OCC(C)(C)C2 (atropisomer, axis not shown)	6.00 to 7.00

----------
Biological target: KRAS G12V (Homo sapiens, UniProt P01116+P62937, G12V)
Test: Ras-Raf disruption / FRET / MOA assay (BRAF RBD)
Type: biochemical
Conditions: KRAS G12V FRET data IC50, Ras-Raf disruption, with Cyclophilin A
pIC50: −log10 of the molar value.
measured_property: pIC50

entry_smiles	measured_property	result
CCn1c(-c2cccnc2[C@H](C)OC)c2c3cc(ccc31)-c1cc(O)cc(c1)C[C@H](NC(=O)[C@H](C(C)C)N(C)C(=O)CN(C)C(=O)[C@@H]1N[C@@H]1C1CC1)C(=O)N1CCC[C@H](N1)C(=O)OCC(C)(C)C2	pIC50	7.00 to 8.00
CCn1c(-c2cccnc2[C@H](C)OC)c2c3cc(ccc31)-c1cc(O)cc(c1)C[C@H](NC(=O)[C@H](C(C)C)N(C)C(=O)CN(C)C(=O)[C@H]1N[C@@H]1C(F)(F)F)C(=O)N1CCC[C@H](N1)C(=O)OCC(C)(C)C2	pIC50	7.00 to 8.00
CCn1c(-c2cccnc2[C@H](C)OC)c2c3cc(ccc31)-c1cc(O)cc(c1)C[C@H](NC(=O)[C@H](C(C)C)N(C)C(=O)C13CC(CN1C(=O)[C@H]1CN1)C3)C(=O)N1CCC[C@H](N1)C(=O)OCC(C)(C)C2	pIC50	6.00 to 7.00
CCn1c(-c2cccnc2[C@H](C)OC)c2c3cc(ccc31)-c1csc(n1)C[C@H](NC(=O)[C@H](C1CCCC1)N(C)C(=O)CN(C)C(=O)[C@H]1CN1)C(=O)N1CCC[C@H](N1)C(=O)OCC(C)(C)C2	pIC50	5.00 to 6.00

----------
The following compounds are listed with their measured IC50 values.
Tested on: 4EBP1 (Thr37/46) phosphorylation (mTORC1) in MDA-MB-468 cells
Assay: Cell based AlphaLISA assay, mTOR kinase cellular assay: inhibition of p-4E-BP1 (T37/46) in MDA-MB-468 cells
Settings: Homo sapiens, read-out: pIC50 for Inhibition of mTORC1 and mTORC2 Substarte Phosphorylation p-4E-BP1-(T37/46) (converted)
Text: Cell Based AlphaLISA Assays for Determining IC50 For Inhibition of P-Akt (S473), P-4E-BP1 (T37/46), and P-P70S6K (T389) in MDA-MB-468 Cells mTOR Kinase Cellular Assay To measure functional activity of mTORC1 and mTORC2 in cells the phosphorylation of 4EBP1 (Thr37/46) and P70S6K (Thr389), and AKT1/2/3 (Ser473) was monitored using AlphaLisa SureFire Ultra Kits (Perkin Elmer). […]

compound	IC50
CO[C@H]1C[C@@H]2CC[C@@H](C)[C@@](O)(O2)C(=O)C(=O)N2CCCC[C@H]2C(=O)O[C@H]([C@H](C)C[C@@H]2CC[C@@H](OC(=O)NCc3cnc(N4CCN(c5ncc(C(=O)N(C)CCOCCOCCOCCOCCC(=O)N6CCc7cc(Cn8nc(-c9ccc%10oc(N)nc%10c9)c9c(N)ncnc98)ccc7C6)c(N)n5)CC4)nc3)[C@H](OC)C2)C[C@@H](OC)[C@H](C)/C=C(\C)[C@@H](O)[C@@H](OC)C(=O)[C@H](C)C[C@H](C)/C=C/C=C/C=C/1C [Example 107]	> 1000 nM
CO[C@H]1C[C@@H]2CC[C@@H](C)[C@@](O)(O2)C(=O)C(=O)N2CCCC[C@H]2C(=O)O[C@H]([C@H](C)C[C@@H]2CC[C@@H](OC(=O)N3CCc4nc(N5CCN(c6ncc(C(=O)NCCOCCOCCOCCOCCC(=O)N7CCc8cc(Cn9nc(-c%10ccc%11oc(N)nc%11c%10)c%10c(N)ncnc%109)ccc8C7)cn6)CC5)ncc4C3)[C@H](OC)C2)CC(=O)[C@H](C)/C=C(\C)[C@@H](O)[C@@H](OC)C(=O)[C@H](C)C[C@H](C)/C=C/C=C/C=C/1C [Example 39]	≤ 3.16 nM

----------
Biological target: KRAS G13D (Homo sapiens, UniProt P01116+P62937, G13D)
Sequence (P01116 1-169 isoform P01116-2 G13D limits assumed): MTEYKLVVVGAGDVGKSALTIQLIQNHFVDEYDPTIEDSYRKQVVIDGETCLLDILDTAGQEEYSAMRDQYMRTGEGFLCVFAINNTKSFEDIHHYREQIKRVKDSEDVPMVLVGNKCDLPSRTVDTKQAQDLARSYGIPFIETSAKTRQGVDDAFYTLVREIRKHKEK
Sequence (P62937 whole entry): as the sequence (P62937 whole entry) above
Test: Disruption of BRAF RBD interaction with Ras (FRET / MOA assay, with Cyclophilin A)
Type: biochemical
Settings: KRAS G13D; read-out: KRAS G13D FRET data IC50
From the text: This protocol may also be executed substituting other Ras proteins or nucleotides. The purpose of this biochemical assay was to measure the ability of test compounds to facilitate ternary complex formation between a nucleotide-loaded K-Ras isoform and Cyclophilin A; the resulting ternary complex disrupts binding to a BRAF^RBD construct, inhibiting K-Ras signaling through a RAF effector. Data is reported as IC50 values. […]
pIC50: −log10 of the molar value.

compound	tested_target	pIC50
CCn1c(-c2cccnc2[C@H](C)OC)c2c3cc(ccc31)-c1cccc(c1)C[C@H](NC(=O)[C@H](C(C)C)N(C)C(=O)[C@@H]1CCN(C(=O)C#CC(C)(C)N3CCC3)C1)C(=O)N1CCC[C@H](N1)C(=O)OCC(C)(C)C2	KRAS G13D (Homo sapiens, UniProt P01116+P62937, G13D)	5.00 to 6.00
CCn1c(-c2cccnc2[C@H](C)OC)c2c3cc(ccc31)-c1cc(O)cc(c1)C[C@H](NC(=O)[C@H](C(C)C)N(C)C(=O)C1CCC(C3CCCO3)O1)C(=O)N1CCC[C@H](N1)C(=O)OCC(C)(C)C2 (stereo partly shown)	KRAS G13D (Homo sapiens, UniProt P01116+P62937, G13D)	7.00 to 8.00
C=CC(=O)N1CCO[C@H]2CCN(C(=O)N(C)[C@H](C(=O)N[C@H]3Cc4nc(cs4)-c4ccc5c(c4)c(c(-c4cccnc4[C@H](C)OC)n5CC)CC(C)(C)COC(=O)C4CCCN(N4)C3=O)C(C)C)C[C@@H]21 (stereo partly shown)	KRAS G13D (Homo sapiens, UniProt P01116+P62937, G13D)	6.00 to 7.00
CCn1c(-c2cnccc2COC)c2c3cc(ccc31)-c1cc(O)cc(c1)C[C@H](NC(=O)[C@H](C(C)C)N(C)C(=O)O[C@H]1CCOC1)C(=O)N1CCC[C@H](N1)C(=O)OCC(C)(C)C2	KRAS G13D (Homo sapiens, UniProt P01116+P62937, G13D)	5.00 to 6.00

Values from patent US20230233569A1
